- experiment summary: Components of the Cytosolic LPS Sensing Pathway: Gene Identification via Genome-wide siRNA Screen;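 also: robust z of the log signal after scaling to non-targeting control siRNA wells of the plate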
- settings: RAW264.7 macrophages, IL-1a HTRF, actives lie on both sides, screened at 100 nM (by protocol), cells primed 5 h with Pam3CSK4 first
Out of some 53,000 sequences screened, about 3,700 (7%) were called active. The sample as a whole holds a higher share of actives than the screen did.
Kindly state z-score for each of the entries shown.

Prompt line: Dear colleague, I am looking for the recorded z-score of the following sequence: GGACAACCUUUACUUCUCUTT against Rhox9
Response line: -2.78 (active)

Prompt line: Dear colleague, I am looking for the recorded z-score of the following sequence: GGCACCAAGCUCGAUGAUGTT against Sh3gl2
Response line: -1.41 (inactive)

Prompt line: Dear colleague, I am looking for the recorded z-score of the following sequence: GGAAGAAAGAGUGUAUCAATT against Idi2
Response line: 0.487 (inactive)

Prompt line: Dear colleague, I am looking for the recorded z-score of the following sequence: GCACAGGUGAGCUCUUUGATT against Nudt10
Response line: -1.12 (inactive)

Prompt line: Dear colleague, I am looking for the recorded z-score of the following sequence: GGGAAUUUAUGCAUUAGCATT against Kif2a
Response line: 0.111 (inactive)

Prompt line: Dear colleague, I am looking for the recorded z-score of the following sequence: CCGCCUCUUACCGAAGUUCTT against Mettl4
Response line: 3.04 (active)

Prompt line: Dear colleague, I am looking for the recorded z-score of the following sequence: CGGACACAUGAUUGUCUUCTT against Npas1
Response line: 1.25 (inactive)

Prompt line: Dear colleague, I am looking for the recorded z-score of the following sequence: GGAAGUUGAAUACAUUGUCTT against Arntl
Response line: 0.127 (inactive)

Prompt line: Dear colleague, I am looking for the recorded z-score of the following sequence: GGAGAUCUUAGCAAAGUAUTT against Degs1
Response line: 2.41 (active)

Prompt line: Dear colleague, I am looking for the recorded z-score of the following sequence: CCUGCUACAAGUAUCUCAATT against Fdft1
Response line: 2.85 (active)

Prompt line: Dear colleague, I am looking for the recorded z-score of the following sequence: GGCAGAAAGAAAUUGAGAATT against Trim42
Response line: -0.655 (inactive)

Prompt line: Dear colleague, I am looking for the recorded z-score of the following sequence: GGUAACUGAUUGCUUAGAUTT against Smndc1
Response line: 0.836 (inactive)

Prompt line: Dear colleague, I am looking for the recorded z-score of the following sequence: GGGAUAAUGCAUGUGAAAATT against Pdk3
Response line: -0.292 (inactive)

Prompt line: Dear colleague, I am looking for the recorded z-score of the following sequence: GGAAAGGCUGUUUCCUACCTT against Atox1
Response line: 1.05 (inactive)

Prompt line: Dear colleague, I am looking for the recorded z-score of the following sequence: GCACAAUUUUAUAACUCGGTT against Lrrc49
Response line: 0.457 (inactive)

Prompt line: Dear colleague, I am looking for the recorded z-score of the following sequence: CGAUAUUUGGUGUGAAAUGTT against Tmem70
Response line: -0.609 (inactive)

Prompt line: Dear colleague, I am looking for the recorded z-score of the following sequence: GCUCUGAUGUCAACCUUCCTT against Fam174c
Response line: -2.23 (active)

Prompt line: Dear colleague, I am looking for the recorded z-score of the following sequence: GGCUCUUGCUUUAGUAUUCTT against Ly9
Response line: 0.99 (inactive)

Prompt line: Dear colleague, I am looking for the recorded z-score of the following sequence: GCAACACAAACACUGGCUATT against D930020B18Rik
Response line: -1.57 (inactive)

Prompt line: Dear colleague, I am looking for the recorded z-score of the following sequence: GGUUGUACUGAGUAGCUGGTT against Slc7a4
Response line: 0.997 (inactive)

Prompt line: Dear colleague, I am looking for the recorded z-score of the following sequence: GCGUAUAGGUGAUGUACAGTT against Smad3
Response line: 2.28 (active)

Prompt line: Dear colleague, I am looking for the recorded z-score of the following sequence: GGCUGCACACAAUAUGAACTT against Mrm2
Response line: 0.134 (inactive)

Prompt line: Dear colleague, I am looking for the recorded z-score of the following sequence: GGGUCUUCUUCCUGAGUGUTT against Ak8
Response line: -1.67 (inactive)

Prompt line: Dear colleague, I am looking for the recorded z-score of the following sequence: GGUUAAGGAGAAAUGUGAUTT against Mob3a
Response line: -0.0804 (inactive)

Prompt line: Dear colleague, I am looking for the recorded z-score of the following sequence: GGAGCAGAAUGAGAAGACUTT against Marchf8
Response line: 2.16 (active)
